measured_on: CYP1A2 (Rattus norvegicus)
Sequence (P04799 1-513): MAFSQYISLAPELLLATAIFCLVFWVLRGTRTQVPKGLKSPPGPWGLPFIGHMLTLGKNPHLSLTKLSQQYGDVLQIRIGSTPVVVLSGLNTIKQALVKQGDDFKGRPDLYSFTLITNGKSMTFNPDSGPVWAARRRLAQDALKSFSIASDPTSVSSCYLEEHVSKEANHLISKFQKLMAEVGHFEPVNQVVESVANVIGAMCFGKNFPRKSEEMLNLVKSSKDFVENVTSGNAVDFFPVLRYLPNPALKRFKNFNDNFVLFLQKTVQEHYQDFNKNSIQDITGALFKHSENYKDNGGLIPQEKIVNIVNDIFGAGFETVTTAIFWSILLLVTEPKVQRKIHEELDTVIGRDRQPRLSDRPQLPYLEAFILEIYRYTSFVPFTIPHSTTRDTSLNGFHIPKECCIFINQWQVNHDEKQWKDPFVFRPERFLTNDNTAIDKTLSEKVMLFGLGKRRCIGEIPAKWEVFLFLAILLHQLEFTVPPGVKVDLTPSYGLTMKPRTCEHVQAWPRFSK
pIC50: −log10 of the molar value.
property_label: pIC50

CC1=CC(=O)c2c(O)cccc2C1=O [plumbagin, 5-hydroxy-2-methyl-1,4-naphthoquinone] : 5.58

====

measured_on: CYP2D1 (Rattus norvegicus, UniProt P10633)
Sequence (P10633 1-504): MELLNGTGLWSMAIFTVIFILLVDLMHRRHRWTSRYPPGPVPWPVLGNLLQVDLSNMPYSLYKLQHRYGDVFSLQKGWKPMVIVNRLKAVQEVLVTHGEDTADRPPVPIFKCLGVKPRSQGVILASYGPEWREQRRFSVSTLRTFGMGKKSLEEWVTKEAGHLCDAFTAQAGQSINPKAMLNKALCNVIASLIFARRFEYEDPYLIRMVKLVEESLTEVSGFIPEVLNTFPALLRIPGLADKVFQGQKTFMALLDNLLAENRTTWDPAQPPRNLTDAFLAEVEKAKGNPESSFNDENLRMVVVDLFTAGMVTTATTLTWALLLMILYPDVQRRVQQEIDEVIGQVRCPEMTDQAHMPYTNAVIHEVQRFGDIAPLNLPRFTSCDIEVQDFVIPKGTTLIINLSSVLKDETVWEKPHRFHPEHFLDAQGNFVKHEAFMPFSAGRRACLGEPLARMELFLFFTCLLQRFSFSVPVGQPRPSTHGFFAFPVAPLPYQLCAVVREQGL
pIC50: −log10 of the molar value.
property_label: pIC50

CC1=CC(=O)c2c(O)cccc2C1=O [plumbagin, 5-hydroxy-2-methyl-1,4-naphthoquinone] : 5.21

====

measured_on: CYP2C9 (Homo sapiens, UniProt P11712)
Sequence (P11712 whole entry): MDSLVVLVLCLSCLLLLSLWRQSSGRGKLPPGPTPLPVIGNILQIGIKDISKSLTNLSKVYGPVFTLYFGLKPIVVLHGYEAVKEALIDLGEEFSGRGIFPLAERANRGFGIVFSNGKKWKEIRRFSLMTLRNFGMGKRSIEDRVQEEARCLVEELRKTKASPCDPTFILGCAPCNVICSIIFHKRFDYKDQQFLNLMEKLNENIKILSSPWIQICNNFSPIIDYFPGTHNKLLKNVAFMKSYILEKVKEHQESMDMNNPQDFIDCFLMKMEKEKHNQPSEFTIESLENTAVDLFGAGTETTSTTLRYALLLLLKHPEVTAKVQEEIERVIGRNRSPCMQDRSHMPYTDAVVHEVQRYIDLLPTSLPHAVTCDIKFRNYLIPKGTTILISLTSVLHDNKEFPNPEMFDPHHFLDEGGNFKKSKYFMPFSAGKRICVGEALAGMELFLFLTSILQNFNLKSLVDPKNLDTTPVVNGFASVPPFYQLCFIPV
property_label: Ki (nM)

CC1=CC(=O)c2c(O)cccc2C1=O [plumbagin, 5-hydroxy-2-methyl-1,4-naphthoquinone] : 2160

====

measured_on: CYP2C11 (Rattus norvegicus, UniProt P08683)
Sequence (P08683 1-500): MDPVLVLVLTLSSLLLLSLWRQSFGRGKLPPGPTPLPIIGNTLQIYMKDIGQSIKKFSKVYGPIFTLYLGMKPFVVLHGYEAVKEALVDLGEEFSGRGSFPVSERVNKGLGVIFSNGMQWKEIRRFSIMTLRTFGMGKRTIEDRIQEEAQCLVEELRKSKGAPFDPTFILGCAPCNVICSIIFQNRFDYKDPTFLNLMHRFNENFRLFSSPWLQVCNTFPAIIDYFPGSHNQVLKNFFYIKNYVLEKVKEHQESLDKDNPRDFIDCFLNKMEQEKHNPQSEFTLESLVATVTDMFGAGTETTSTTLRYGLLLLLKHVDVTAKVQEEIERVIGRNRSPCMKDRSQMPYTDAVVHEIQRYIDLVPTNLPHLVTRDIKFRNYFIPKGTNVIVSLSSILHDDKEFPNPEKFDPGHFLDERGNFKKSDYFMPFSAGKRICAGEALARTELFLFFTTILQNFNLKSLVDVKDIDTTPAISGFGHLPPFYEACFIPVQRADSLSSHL
property_label: Ki (µM)

CC1=CC(=O)c2c(O)cccc2C1=O [plumbagin, 5-hydroxy-2-methyl-1,4-naphthoquinone] : 7.85

====

measured_on: CYP3A2 (Rattus norvegicus)
Sequence (P05183 1-504): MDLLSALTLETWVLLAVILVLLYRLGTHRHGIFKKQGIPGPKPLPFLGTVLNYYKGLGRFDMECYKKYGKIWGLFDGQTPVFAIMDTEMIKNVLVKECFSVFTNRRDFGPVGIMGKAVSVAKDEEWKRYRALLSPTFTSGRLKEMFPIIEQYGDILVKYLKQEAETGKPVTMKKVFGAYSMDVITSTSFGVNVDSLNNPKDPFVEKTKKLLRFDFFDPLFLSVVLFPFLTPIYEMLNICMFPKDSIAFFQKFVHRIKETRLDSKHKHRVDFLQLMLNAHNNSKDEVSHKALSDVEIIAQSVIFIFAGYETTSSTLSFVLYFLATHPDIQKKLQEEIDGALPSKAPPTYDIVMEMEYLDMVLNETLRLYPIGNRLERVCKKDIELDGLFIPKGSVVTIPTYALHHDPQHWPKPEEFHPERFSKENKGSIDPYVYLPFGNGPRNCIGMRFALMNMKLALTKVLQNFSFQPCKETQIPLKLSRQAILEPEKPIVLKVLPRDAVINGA
property_label: IC50 (µM)

CC1=CC(=O)c2c(O)cccc2C1=O [plumbagin, 5-hydroxy-2-methyl-1,4-naphthoquinone] : 8.47

====

measured_on: CYP3A4 (Homo sapiens)
Construct: consisting of pooled HLMs (0.5 mg/ml) or RLMs (1 mg/ml) and an NADPH-regenerating system; tissue Corning Gentest Corporation; host or cells: pooled human liver microsomes (n = 20)
Sequence (P08684 whole entry): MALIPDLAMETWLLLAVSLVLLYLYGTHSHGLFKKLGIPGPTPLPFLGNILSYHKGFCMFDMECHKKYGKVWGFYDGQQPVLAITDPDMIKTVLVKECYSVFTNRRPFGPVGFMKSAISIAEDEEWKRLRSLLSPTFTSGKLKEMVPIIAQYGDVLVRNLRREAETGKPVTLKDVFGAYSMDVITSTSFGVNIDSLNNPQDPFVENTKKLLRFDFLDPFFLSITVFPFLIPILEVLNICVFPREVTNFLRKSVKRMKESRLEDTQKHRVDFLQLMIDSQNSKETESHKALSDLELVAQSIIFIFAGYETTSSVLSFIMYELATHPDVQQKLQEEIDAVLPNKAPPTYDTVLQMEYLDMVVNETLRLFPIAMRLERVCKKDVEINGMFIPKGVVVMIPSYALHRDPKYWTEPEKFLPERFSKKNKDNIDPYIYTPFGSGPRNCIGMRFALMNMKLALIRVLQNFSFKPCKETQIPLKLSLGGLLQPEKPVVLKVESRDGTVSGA
experiment: biochemical
Type: in vitro ADME
property_label: Ki (nM)

CC1=CC(=O)c2c(O)cccc2C1=O [plumbagin, 5-hydroxy-2-methyl-1,4-naphthoquinone] : 880

====

measured_on: CYP2B1 (Rattus norvegicus, UniProt P00176)
Sequence (P00176 whole entry): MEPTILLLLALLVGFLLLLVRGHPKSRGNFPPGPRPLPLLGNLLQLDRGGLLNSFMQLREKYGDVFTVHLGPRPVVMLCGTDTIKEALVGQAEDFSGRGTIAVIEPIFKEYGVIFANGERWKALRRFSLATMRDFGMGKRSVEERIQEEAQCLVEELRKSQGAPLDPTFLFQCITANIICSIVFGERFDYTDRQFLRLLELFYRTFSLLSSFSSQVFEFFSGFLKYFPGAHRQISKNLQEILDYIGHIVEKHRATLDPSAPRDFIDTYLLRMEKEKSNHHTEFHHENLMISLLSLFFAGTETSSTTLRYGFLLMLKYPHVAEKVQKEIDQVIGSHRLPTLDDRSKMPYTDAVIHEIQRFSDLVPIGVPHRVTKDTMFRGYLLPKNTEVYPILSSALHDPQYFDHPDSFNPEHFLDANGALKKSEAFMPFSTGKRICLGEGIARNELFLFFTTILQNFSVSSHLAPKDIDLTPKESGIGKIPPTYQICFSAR
property_label: IC50

CC1=CC(=O)c2c(O)cccc2C1=O [plumbagin, 5-hydroxy-2-methyl-1,4-naphthoquinone] : 5.86 µM

====

measured_on: UniProtKB P10635
Sequence (P10635 whole entry): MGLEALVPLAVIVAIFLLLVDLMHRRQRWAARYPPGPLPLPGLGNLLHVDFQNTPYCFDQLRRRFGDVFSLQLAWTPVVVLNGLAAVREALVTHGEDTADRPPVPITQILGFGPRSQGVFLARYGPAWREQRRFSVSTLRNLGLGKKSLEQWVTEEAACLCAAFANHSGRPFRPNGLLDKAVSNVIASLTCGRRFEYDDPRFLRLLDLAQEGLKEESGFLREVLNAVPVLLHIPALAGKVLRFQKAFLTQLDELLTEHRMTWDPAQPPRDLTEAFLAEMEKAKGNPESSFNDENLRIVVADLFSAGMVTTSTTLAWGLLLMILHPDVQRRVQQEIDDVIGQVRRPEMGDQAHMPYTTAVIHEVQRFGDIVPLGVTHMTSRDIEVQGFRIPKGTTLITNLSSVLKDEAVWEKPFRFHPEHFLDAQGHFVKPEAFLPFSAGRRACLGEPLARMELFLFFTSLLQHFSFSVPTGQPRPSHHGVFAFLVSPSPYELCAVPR
property_label: IC50 (µM)

CC1=CC(=O)c2c(O)cccc2C1=O [plumbagin, 5-hydroxy-2-methyl-1,4-naphthoquinone] : 10.2

====

measured_on: UniProt:P10633
Sequence (P10633 1-504): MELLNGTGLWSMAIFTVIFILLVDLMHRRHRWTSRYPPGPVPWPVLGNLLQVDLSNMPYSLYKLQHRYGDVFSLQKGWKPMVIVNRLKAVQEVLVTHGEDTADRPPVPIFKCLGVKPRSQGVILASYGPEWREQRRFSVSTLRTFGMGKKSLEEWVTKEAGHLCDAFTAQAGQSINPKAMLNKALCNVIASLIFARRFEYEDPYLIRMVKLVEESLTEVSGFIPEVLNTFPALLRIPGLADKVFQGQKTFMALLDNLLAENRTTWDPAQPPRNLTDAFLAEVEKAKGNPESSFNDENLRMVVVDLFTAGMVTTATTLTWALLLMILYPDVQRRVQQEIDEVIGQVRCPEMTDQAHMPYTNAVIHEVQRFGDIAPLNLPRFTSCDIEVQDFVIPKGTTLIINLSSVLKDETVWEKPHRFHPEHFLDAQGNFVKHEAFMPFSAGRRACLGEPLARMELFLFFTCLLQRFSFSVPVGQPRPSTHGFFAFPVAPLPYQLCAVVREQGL
pKi: −log10 of the molar value.
property_label: pKi

CC1=CC(=O)c2c(O)cccc2C1=O [plumbagin, 5-hydroxy-2-methyl-1,4-naphthoquinone] : 5.02

====

measured_on: CYP2B6 (Homo sapiens, UniProt P20813)
Sequence (P20813 1-491): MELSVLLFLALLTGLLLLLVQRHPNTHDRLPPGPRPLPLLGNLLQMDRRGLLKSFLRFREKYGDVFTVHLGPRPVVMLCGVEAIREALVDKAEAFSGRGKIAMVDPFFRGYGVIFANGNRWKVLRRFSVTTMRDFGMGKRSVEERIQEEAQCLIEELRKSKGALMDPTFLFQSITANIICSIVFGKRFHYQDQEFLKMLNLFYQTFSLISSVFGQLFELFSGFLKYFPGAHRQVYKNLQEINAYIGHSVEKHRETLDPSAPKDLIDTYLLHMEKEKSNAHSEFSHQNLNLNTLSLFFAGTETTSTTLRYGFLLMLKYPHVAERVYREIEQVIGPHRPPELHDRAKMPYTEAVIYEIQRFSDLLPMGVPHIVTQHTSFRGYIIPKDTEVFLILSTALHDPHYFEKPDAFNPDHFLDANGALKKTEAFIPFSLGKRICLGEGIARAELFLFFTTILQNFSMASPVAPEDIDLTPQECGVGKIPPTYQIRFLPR
pIC50: −log10 of the molar value.
property_label: pIC50

CC1=CC(=O)c2c(O)cccc2C1=O [plumbagin, 5-hydroxy-2-methyl-1,4-naphthoquinone] : 4.88

====

measured_on: CYP1A2 (Homo sapiens, UniProt P05177)
Sequence (P05177 whole entry): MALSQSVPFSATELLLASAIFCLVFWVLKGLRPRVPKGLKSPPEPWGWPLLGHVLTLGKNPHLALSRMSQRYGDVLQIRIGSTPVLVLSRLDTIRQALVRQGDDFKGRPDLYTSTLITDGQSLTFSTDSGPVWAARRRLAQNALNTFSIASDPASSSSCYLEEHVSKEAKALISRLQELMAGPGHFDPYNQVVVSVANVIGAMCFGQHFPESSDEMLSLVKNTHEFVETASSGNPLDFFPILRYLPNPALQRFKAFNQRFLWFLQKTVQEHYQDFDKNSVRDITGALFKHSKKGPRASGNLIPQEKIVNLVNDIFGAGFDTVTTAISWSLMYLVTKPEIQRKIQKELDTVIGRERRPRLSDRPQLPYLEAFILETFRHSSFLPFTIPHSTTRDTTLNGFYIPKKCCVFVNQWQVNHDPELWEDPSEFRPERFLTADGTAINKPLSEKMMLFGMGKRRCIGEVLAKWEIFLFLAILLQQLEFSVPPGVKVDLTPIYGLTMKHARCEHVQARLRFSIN
property_label: IC50 (µM)

CC1=CC(=O)c2c(O)cccc2C1=O [plumbagin, 5-hydroxy-2-methyl-1,4-naphthoquinone] : 7.49

Hey, just so you know, these numbers are from paper PMC4916434.
